reported property: melting point

As a guide, the following entries are already answered.
Query: Read off the recorded melting point for CCOC(=O)c1cc(-c2ccc(Br)s2)on1
Reply: 51 to 53 °C

Query: Read off the recorded melting point for NC(=O)c1cccc(CCl)c1
Reply: 125 to 127 °C

Query: Read off the recorded melting point for c1cnc(-c2noc(C3CCNCC3)n2)cn1
Reply: 87 to 89 °C

Query: Read off the recorded melting point for CN(C)CCC(c1ccc(Br)cc1)c1ccccn1 (stereo not given)
Reply: < 25 °C

Attention now turns to another entry.
Query: Read off the recorded melting point for COc1ccc(Oc2ncccc2[N+](=O)[O-])cc1
Reply: 95 to 101 °C

----------
This listing pairs compounds with measured melting point.

As a guide, the following entries are already answered.
Query: Read off the recorded melting point for Cc1ccc([N+](=O)[O-])c(I)c1
Reply: 18 to 20 °C

Query: Read off the recorded melting point for Cc1nc(-c2ccc(Cl)cc2)sc1C(=O)CBr
Reply: 120 to 121 °C

Next:
Query: Read off the recorded melting point for Brc1ccc2nsnc2c1
Reply: 59 to 60 °C

Query: Read off the recorded melting point for O=C(Cl)c1cnn(-c2ccccc2)c1C(F)(F)F
Reply: 40 to 41 °C

Query: Read off the recorded melting point for O=C(CBr)c1ccc(OC(F)(F)F)cc1
Reply: 55 to 58 °C

Query: Read off the recorded melting point for C[C@H](N)C(=O)O
Reply: 314 to 316 °C

----------
reported property: melting point (°C)

As a guide, the following entries are already answered.
Query: Read off the recorded melting point for CCOc1ccc2nc3cc(N)ccc3c(N)c2c1
Reply: 226

Query: Read off the recorded melting point for CCCCCCCCCCCCCCCCCCCCCCCCCCO
Reply: 80

Query: Read off the recorded melting point for COC(=O)c1cc(N)cc(N)c1
Reply: 133

P. c1ccc(-c2ccccc2-c2ccccc2-c2ccccc2)cc1
Q. CC(=O)N(C)C(C)=O
Query: Which has the smaller recorded melting point, P or Q ? Write down the label of the entry you select.
Reply: Q
(Q: -25 °C, P: 118 °C)

----------
This listing pairs compounds with measured melting point.

Query: Read off the recorded melting point for C=C(C)CNC(=S)NC
Reply: 60 to 64 °C

Query: Read off the recorded melting point for CC(C)[C@H](NC(=O)OCC1c2ccccc2-c2ccccc21)C(=O)Oc1c(F)c(F)c(F)c(F)c1F
Reply: 121 to 122 °C

Query: Read off the recorded melting point for CC12CCC(C(=CC=C3C(=O)C4(C)CCC3C4(C)C)C1=O)C2(C)C
Reply: 283 to 285 °C

Query: Read off the recorded melting point for O=C(O)c1cccnc1N1CCOCC1
Reply: 129 to 133 °C

Query: Read off the recorded melting point for C1=CC2CC1[C@@H](P(c1ccccc1)c1ccccc1)[C@@H]2P(c1ccccc1)c1ccccc1
Reply: 120 to 125 °C

Query: Read off the recorded melting point for Cc1nc(NC(=O)NS(=O)(=O)c2cccs2)nc(O)c1C
Reply: 219 to 221 °C

Next:
Query: Read off the recorded melting point for CC(C)OC(=O)Cc1csc(-c2ccc(Cl)cc2)n1
Reply: 82 to 84 °C

Query: Read off the recorded melting point for O=Cc1cccn1-c1ccc([N+](=O)[O-])cc1
Reply: 166 to 169 °C

Query: Read off the recorded melting point for ClCc1nc2ccccc2[nH]1
Reply: 146 to 150 °C

Query: Read off the recorded melting point for O=C1CCC2C3CCC(=O)C3C12 (stereo not drawn)
Reply: 65 to 69 °C

Query: Read off the recorded melting point for CC(C)S(=O)(=O)c1cnc(-c2ccccn2)nc1N
Reply: 147 to 150 °C

Query: Read off the recorded melting point for NC(=S)c1ccc[nH]1
Reply: 161 to 163 °C

Query: Read off the recorded melting point for NC(=S)c1ccc(-c2csnn2)cc1
Reply: 223 to 228 °C
